Data provenance: patent US20220177587A1

molecular target: human CTLA-4 (human) (UniProt P16410); assay: flow cytometry, CHO cells expressing huCTLA4
Sequence (P16410 36-223): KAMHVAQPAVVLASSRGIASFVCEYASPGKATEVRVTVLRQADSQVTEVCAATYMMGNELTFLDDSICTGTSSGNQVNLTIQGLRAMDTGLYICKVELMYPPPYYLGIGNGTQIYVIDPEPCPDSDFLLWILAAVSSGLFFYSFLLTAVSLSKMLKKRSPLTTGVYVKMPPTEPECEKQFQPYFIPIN
Quantity Kind: MFI at 33.3 nM

Examples from the recorded data:
# Binder, Quantity Kind, Value Measured
measured = [
    ("variant CD80 IgV-Fc H18Y/Y31H/E35D/M47V/A71G/L85Q (Fc fusion) VIHVTKEVKEVATLSCGYNVSVEELAQTRIHWQKDKKMVLTMMSGDVNIWPEYKNRTIFDITNNLSIVILGLRPSDEGTYECVVQKYEKDAFKREHLAEVTLSVKAD", "MFI at 33.3 nM", "3840 MFI"),
    ("variant CD80 IgV-Fc E35D/T41S/M43I/M47L/A71G (Fc fusion) VIHVTKEVKEVATLSCGHNVSVEELAQTRIYWQKDKKMVLSMISGDLNIWPEYKNRTIFDITNNLSIVILGLRPSDEGTYECVVLKYEKDAFKREHLAEVTLSVKAD", "MFI at 33.3 nM", "209000 MFI"),
    ("variant CD80 IgV-Fc H18Y/A26E/Q33L/E35D/M47L/L85Q (Fc fusion) VIHVTKEVKEVATLSCGYNVSVEELEQTRIYWLKDKKMVLTMMSGDLNIWPEYKNRTIFDITNNLSIVILALRPSDEGTYECVVQKYEKDAFKREHLAEVTLSVKAD", "MFI at 33.3 nM", "2090 MFI"),
    ("variant CD80 IgV-Fc E35D/M47I/E77A/L85Q/R94W (Fc fusion) VIHVTKEVKEVATLSCGHNVSVEELAQTRIYWQKDKKMVLTMMSGDINIWPEYKNRTIFDITNNLSIVILALRPSDAGTYECVVQKYEKDAFKWEHLAEVTLSVKAD", "MFI at 33.3 nM", "247000 MFI"),
    ("variant CD80 IgV-Fc Q33L/E35D/M43V/M47I/A71G (Fc fusion) VIHVTKEVKEVATLSCGHNVSVEELAQTRIYWLKDKKMVLTMVSGDINIWPEYKNRTIFDITNNLSIVILGLRPSDEGTYECVVLKYEKDAFKREHLAEVTLSVKAD", "MFI at 33.3 nM", "14000 MFI"),
    ("variant CD80 IgV-Fc Q33L/E35D/M43I/L85Q/R94W (Fc fusion) VIHVTKEVKEVATLSCGHNVSVEELAQTRIYWLKDKKMVLTMISGDMNIWPEYKNRTIFDITNNLSIVILALRPSDEGTYECVVQKYEKDAFKWEHLAEVTLSVKAD", "MFI at 33.3 nM", "1080 MFI"),
    ("variant CD80 IgV-Fc E35D/D46E/M47V/A71D/D90G (Fc fusion) VIHVTKEVKEVATLSCGHNVSVEELAQTRIYWQKDKKMVLTMMSGEVNIWPEYKNRTIFDITNNLSIVILDLRPSDEGTYECVVLKYEKGAFKREHLAEVTLSVKAD", "MFI at 33.3 nM", "275000 MFI"),
]

**Q:** Quickly give me recorded MFI at 33.3 nM for variant CD80 IgV-Fc H18L/V22A/E35D/M47L/N48T/L85Q (Fc fusion) VIHVTKEVKEVATLSCGLNVSAEELAQTRIYWQKDKKMVLTMMSGDLTIWPEYKNRTIFDITNNLSIVILALRPSDEGTYECVVQKYEKDAFKREHLAEVTLSVKAD
**A:** 374000 MFI
